Test: LogP by HPLC on reversed phase columns (EEC directive 79/831 Annex V.A8)
Type: physicochemical
Conditions: [a] LC-UV, acidic range, 0.1% formic acid in water and acetonitrile as eluent
property-name: LogP

{"columns": ["molecule", "LogP"],
 "data": [
  ["N#Cc1cc(I)ccc1OC1(C2(c3ccc(F)cc3F)CO2)CC1 (stereo not drawn)", 4.14],
  ["OC(Cn1cncn1)(c1ccc(F)cc1F)C1(Oc2cccc(Br)c2)CC1 (racemic)", "3.54^[a];"],
  ["O=C(c1ccc(F)cc1F)C1(Oc2c(Cl)cccc2Cl)CC1", "4.59^[a]"],
  ["OC(Cn1cncn1)(c1ccc(F)cc1F)C1(Oc2ccc(F)cc2Cl)CC1 (racemic)", "3.47^[a];"],
  ["Fc1ccc(C2(C3(Oc4cccc(I)c4)CC3)CO2)c(F)c1 (stereo not drawn)", 4.82],
  ["O=C(c1ccc(F)cc1F)C1(Oc2cccc(Br)c2)CC1", 4.32]
]}

LogP recorded for this molecule, Fc1cc(Cl)ccc1OC1(C2(c3ccc(Cl)cc3F)CO2)CC1 (racemic) , is 5.00^[a]

LogP recorded for this molecule, C=CCOC(Cn1cncn1)(c1ccc(F)cc1F)C1(Oc2ccc(Cl)cc2)CC1 (racemic) , is 4.34^[a]

LogP recorded for this molecule, CCCOC(Cn1cncn1)(c1ccc(F)cc1F)C1(Oc2ccc(Cl)cc2)CC1 (racemic) , is 4.73^[a]
